Data origin: patent US20230408517A1

Biological target: SARS-CoV spike RBD (R306-F527), C-terminal 6-His (SARS-CoV, UniProt P59594 306-527)
Assay: flow cytometry, blocking of binding to hACE-2 cells
assayEndpoint: percent blocking (%)
One number for each entry, in %.

Some binders with known percent blocking results, for comparison:
INSERT INTO results (binder, unitsofmeasure, assayvalue) VALUES
  ('1035240 (antibody, V domains shown) VH: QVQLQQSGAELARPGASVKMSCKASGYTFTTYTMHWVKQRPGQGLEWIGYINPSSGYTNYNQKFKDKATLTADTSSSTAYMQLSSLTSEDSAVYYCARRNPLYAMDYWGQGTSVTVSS VL: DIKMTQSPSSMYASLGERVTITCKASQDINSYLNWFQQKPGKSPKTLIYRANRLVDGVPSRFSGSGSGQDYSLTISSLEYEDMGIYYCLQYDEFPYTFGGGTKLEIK', '%', 0),
  ('1035423 (antibody, V domains shown) VH: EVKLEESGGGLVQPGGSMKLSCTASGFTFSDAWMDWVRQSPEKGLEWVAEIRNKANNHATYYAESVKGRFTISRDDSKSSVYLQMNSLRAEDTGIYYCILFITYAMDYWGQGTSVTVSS VL: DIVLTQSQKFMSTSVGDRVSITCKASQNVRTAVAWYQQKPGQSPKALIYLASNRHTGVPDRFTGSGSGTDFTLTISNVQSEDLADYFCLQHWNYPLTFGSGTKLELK', '%', 0);

Batch request: percent blocking for each of the following binders.
1. 1035224 (antibody, V domains shown) VH: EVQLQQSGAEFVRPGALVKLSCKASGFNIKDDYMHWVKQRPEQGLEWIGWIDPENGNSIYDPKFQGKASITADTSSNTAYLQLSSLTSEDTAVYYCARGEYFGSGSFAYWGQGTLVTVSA VL: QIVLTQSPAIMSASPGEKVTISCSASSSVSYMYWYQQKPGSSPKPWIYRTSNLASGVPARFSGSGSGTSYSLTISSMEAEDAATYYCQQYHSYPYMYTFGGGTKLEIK
2. 1035414 (antibody, V domains shown) VH: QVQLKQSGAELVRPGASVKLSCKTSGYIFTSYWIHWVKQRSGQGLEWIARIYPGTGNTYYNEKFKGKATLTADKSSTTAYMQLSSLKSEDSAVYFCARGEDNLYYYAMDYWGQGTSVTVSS VL: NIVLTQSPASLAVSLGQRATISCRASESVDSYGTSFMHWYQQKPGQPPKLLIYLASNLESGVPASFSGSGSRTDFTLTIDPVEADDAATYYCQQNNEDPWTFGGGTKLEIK
3. 1035753 (antibody, V domains shown) VH: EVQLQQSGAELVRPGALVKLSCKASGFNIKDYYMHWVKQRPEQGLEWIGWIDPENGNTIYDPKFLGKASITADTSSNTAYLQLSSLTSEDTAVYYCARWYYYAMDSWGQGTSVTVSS VL: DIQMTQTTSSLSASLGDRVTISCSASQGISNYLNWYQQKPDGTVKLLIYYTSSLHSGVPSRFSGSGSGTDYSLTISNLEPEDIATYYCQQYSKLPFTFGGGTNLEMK

[0, 0.4, 0]
